Entries annotated with measured Firefly, NR2F6 stable (clone F4)/pGL4
ASSAY_TARGET: NR2F6 (Homo sapiens, UniProt P10588)
Construct: expressed in transfected cells; also transient transfection
METHOD_NOTES: NR2F6 agonist screening, Firefly signal cmpd/DMSO
Format: cell-based
TEST_SETTINGS: Table 12; ratio of Firefly in NR2F6 stable clone F4 to pGL4
MEASURED_ATTRIBUTE: Firefly, NR2F6 stable (clone F4)/pGL4

[[record]]
structure = "Cc1ccc(NC(=O)c2ccc3oc(=O)c(S(=O)(=O)c4ccccc4)cc3c2)c(C)c1"
measured_attribute = "Firefly, NR2F6 stable (clone F4)/pGL4"
experimental_value = 8.2

[[record]]
structure = "Cc1cccc(NC(=O)c2ccc3oc(=O)c(S(=O)(=O)c4ccc(Cl)cc4)cc3c2)c1C"
measured_attribute = "Firefly, NR2F6 stable (clone F4)/pGL4"
experimental_value = 8.1

[[record]]
structure = "Cc1ccc2oc(=O)c(S(=O)(=O)c3cccc(C#N)c3)cc2c1"
measured_attribute = "Firefly, NR2F6 stable (clone F4)/pGL4"
experimental_value = 10.1

[[record]]
structure = "Cc1ccc(S(=O)(=O)c2cc3cc(Cl)ccc3oc2=O)cc1"
measured_attribute = "Firefly, NR2F6 stable (clone F4)/pGL4"
experimental_value = 6.1

[[record]]
structure = "CCOc1cccc2cc(S(=O)(=O)c3cc(F)cc(F)c3)c(=O)oc12"
measured_attribute = "Firefly, NR2F6 stable (clone F4)/pGL4"
experimental_value = 6.5


====

Entries annotated with measured Firefly, cmpd/DMSO (mean)
ASSAY_TARGET: NR2F6 (Homo sapiens)
Construct: expressed in transfected cells; also transient transfection
Sequence (P10588 1-404): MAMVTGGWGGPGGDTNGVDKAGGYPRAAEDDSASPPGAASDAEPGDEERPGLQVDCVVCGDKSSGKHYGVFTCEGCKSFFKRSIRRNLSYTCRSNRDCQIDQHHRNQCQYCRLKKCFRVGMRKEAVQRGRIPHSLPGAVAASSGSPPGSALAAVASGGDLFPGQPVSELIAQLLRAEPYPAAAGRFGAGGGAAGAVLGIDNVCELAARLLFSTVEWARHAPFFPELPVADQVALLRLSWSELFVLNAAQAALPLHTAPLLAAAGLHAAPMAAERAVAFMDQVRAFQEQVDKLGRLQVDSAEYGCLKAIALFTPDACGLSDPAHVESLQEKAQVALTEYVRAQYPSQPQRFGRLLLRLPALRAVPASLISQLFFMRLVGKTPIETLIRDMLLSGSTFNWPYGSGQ
METHOD_NOTES: NR2F6 agonist screening, Firefly signal cmpd/DMSO
Type: cell-based
MEASURED_ATTRIBUTE: Firefly, cmpd/DMSO (mean)

[[record]]
structure = "COc1ccccc1-c1noc(Cn2ncc(Cl)cc2=O)n1"
experimental_value = 1.0

[[record]]
structure = "COc1ccc(-c2noc(Cn3ncc(Cl)cc3=O)n2)cc1"
experimental_value = 1.1

[[record]]
structure = "COc1ccccc1-c1noc(Cn2ncc(C)cc2=O)n1"
experimental_value = 1.0

[[record]]
structure = "COc1ccc(-c2noc(Cn3nccc(Cl)c3=O)n2)cc1"
experimental_value = 1.8

[[record]]
structure = "COc1ccccc1-c1noc(COc2nccc(C)n2)n1"
experimental_value = 1.5

[[record]]
structure = "CC(=O)Nc1ccc(Cl)c2nonc12"
experimental_value = 1.0

[[record]]
structure = "COc1ccc(-c2noc(Cn3nccc(C)c3=O)n2)cc1"
experimental_value = 2.0

[[record]]
structure = "COc1ccc(-c2noc(Cn3ncccc3=O)n2)cc1"
experimental_value = 2.1

[[record]]
structure = "COc1cccc(-c2noc(Cn3ncc(C)c(C)c3=O)n2)c1"
experimental_value = 1.5

[[record]]
structure = "COc1ccc(-c2noc(Cn3ncc(C)cc3=O)n2)cc1"
experimental_value = 1.6

[[record]]
structure = "COc1ccc(-c2noc(Cn3ncc(C)c(C)c3=O)n2)cc1"
experimental_value = 1.2

[[record]]
structure = "COc1ccccc1-c1noc(Cn2nccc(C)c2=O)n1"
experimental_value = 1.1

[[record]]
structure = "COc1ccccc1-c1noc(Cn2nccc(Cl)c2=O)n1"
experimental_value = 1.1


====

Entries annotated with measured Firefly F4, cmpd/DMSO (mean)
ASSAY_TARGET: NR2F6 (Homo sapiens, UniProt P10588)
Construct: expressed in transfected cells; also transient transfection
Sequence (P10588 1-404): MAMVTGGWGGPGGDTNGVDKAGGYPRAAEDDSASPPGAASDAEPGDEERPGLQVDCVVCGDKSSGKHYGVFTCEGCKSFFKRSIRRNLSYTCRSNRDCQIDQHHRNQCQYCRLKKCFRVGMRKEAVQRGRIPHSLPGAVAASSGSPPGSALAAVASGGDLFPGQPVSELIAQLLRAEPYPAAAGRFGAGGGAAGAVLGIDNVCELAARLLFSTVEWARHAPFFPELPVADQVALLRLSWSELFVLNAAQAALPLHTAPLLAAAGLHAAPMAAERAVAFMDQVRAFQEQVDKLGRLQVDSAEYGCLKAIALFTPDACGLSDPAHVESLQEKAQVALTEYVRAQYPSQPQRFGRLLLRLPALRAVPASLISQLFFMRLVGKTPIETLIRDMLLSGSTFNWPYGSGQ
METHOD_NOTES: NR2F6 agonist screening, Firefly signal cmpd/DMSO
Type: cell-based
TEST_SETTINGS: 2 uM; clone F4
MEASURED_ATTRIBUTE: Firefly F4, cmpd/DMSO (mean)

[[record]]
molecule = "O=C(O)c1ccc(-n2ncc(Cl)c(Cl)c2=O)cc1 [Compound 44]"
experimental_value = 1.3

[[record]]
molecule = "CCOC(=O)c1cnc2c(C)cc(C)cc2c1N1CCCC(N(C)C)C1 (stereo not shown) [Compound Z27]"
experimental_value = 1.3

[[record]]
molecule = "Cc1ccc(CCCNc2c(C#N)c(C(F)(F)F)nc3ccc(Oc4ccccc4)cc23)cc1 [Compound Z42]"
experimental_value = 0.9

[[record]]
molecule = "COc1ccc(-c2cc3n(n2)C(N)=C(C#N)C(c2cccn2C)(C(F)(F)F)N3)cc1OC (stereo not shown) [Compound Z50]"
experimental_value = 0.8


====

Entries annotated with measured Firefly F4, cmpd/DMSO (mean)
ASSAY_TARGET: NR2F6 (Homo sapiens)
Construct: expressed in transfected cells; also transient transfection
Sequence (P10588 1-404): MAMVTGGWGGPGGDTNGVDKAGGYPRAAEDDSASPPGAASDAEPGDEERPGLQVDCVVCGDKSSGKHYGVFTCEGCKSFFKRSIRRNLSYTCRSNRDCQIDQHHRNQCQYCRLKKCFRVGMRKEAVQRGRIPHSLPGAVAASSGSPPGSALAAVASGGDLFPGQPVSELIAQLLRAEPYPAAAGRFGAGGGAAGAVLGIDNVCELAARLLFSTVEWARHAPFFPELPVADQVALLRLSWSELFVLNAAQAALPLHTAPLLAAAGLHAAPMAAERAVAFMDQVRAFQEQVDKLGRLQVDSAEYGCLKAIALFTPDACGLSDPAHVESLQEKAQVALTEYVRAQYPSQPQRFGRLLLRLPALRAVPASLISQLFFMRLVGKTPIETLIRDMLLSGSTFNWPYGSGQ
METHOD_NOTES: NR2F6 agonist screening, Firefly signal cmpd/DMSO
Type: cell-based
TEST_SETTINGS: Table 14; 40 uM
MEASURED_ATTRIBUTE: Firefly F4, cmpd/DMSO (mean)

[[record]]
structure = "Cc1cc(C)nc(Sc2nnc(-c3ccc(C)c(S(=O)(=O)N4CCOCC4)c3)c3ccccc23)n1"
experimental_value = 0.5

[[record]]
structure = "Cc1cc(NC(=O)CCS(=O)(=O)c2nc(-c3ccc4c(c3)OCO4)cc(C(F)(F)F)n2)no1"
experimental_value = 0.4

[[record]]
structure = "Cc1ccc(NC(=O)c2noc3c2CCC3)cc1C"
experimental_value = 1.0

[[record]]
structure = "O=C(COc1ccccc1C(=O)N1CCOCC1)NCCc1ccccc1"
experimental_value = 0.6

[[record]]
structure = "CCOC(=O)c1cnc2c(C)cc(C)cc2c1NCc1ccccc1"
experimental_value = 0.7


====

ASSAY_TARGET: NR2F6 (Homo sapiens)
Construct: expressed in transfected cells; also transient transfection
Sequence (P10588 1-404): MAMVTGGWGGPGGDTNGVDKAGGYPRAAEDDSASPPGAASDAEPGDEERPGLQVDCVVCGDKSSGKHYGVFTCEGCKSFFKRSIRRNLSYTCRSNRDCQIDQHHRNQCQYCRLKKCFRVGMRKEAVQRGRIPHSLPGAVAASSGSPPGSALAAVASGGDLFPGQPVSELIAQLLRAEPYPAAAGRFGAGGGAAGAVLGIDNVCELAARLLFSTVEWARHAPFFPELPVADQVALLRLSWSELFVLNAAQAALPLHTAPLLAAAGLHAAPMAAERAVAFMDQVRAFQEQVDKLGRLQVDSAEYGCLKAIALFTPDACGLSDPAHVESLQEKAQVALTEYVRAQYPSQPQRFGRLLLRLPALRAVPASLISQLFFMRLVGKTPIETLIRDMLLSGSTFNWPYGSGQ
METHOD_NOTES: NR2F6 agonist screening, Firefly signal cmpd/DMSO
Assay type: cell-based
TEST_SETTINGS: Table 11; repeat 1
Entries annotated with measured Firefly, cmpd/DMSO repeat 1
MEASURED_ATTRIBUTE: Firefly, cmpd/DMSO repeat 1

[[record]]
structure = "COc1ccc(S(=O)(=O)c2cc3cc(Br)cc(Br)c3oc2=O)cc1"
measured_attribute = "Firefly, cmpd/DMSO repeat 1"
experimental_value = 1.0

[[record]]
structure = "O=c1oc2c(F)cc(F)cc2cc1S(=O)(=O)c1ccccc1"
measured_attribute = "Firefly, cmpd/DMSO repeat 1"
experimental_value = 6.8

[[record]]
structure = "CC(C)(C)c1ccc(S(=O)(=O)c2cc3cc(F)cc(F)c3oc2=O)cc1"
measured_attribute = "Firefly, cmpd/DMSO repeat 1"
experimental_value = 0.9

[[record]]
structure = "CC(C)c1ccc(S(=O)(=O)c2cc3cc(Br)cc(Br)c3oc2=O)cc1"
measured_attribute = "Firefly, cmpd/DMSO repeat 1"
experimental_value = 2.9

[[record]]
structure = "Cc1ccc(S(=O)(=O)c2cc3cc(Br)cc(Br)c3oc2=O)cc1C"
measured_attribute = "Firefly, cmpd/DMSO repeat 1"
experimental_value = 1.0

[[record]]
structure = "Cc1cc(S(=O)(=O)c2cc3cc(F)cc(F)c3oc2=O)ccc1F"
measured_attribute = "Firefly, cmpd/DMSO repeat 1"
experimental_value = 18.3

[[record]]
structure = "COc1cc(Br)cc2cc(S(=O)(=O)c3ccc(F)cc3)c(=O)oc12"
measured_attribute = "Firefly, cmpd/DMSO repeat 1"
experimental_value = 4.0

[[record]]
structure = "O=c1oc2c(Br)cc(Br)cc2cc1S(=O)(=O)c1ccc(Cl)c(Cl)c1"
measured_attribute = "Firefly, cmpd/DMSO repeat 1"
experimental_value = 3.0

[[record]]
structure = "O=c1oc2c(F)cc(F)cc2cc1S(=O)(=O)c1ccc(Br)cc1"
measured_attribute = "Firefly, cmpd/DMSO repeat 1"
experimental_value = 13.8


Every entry's value here was drawn from patent US11377442B2.
